Task for the reader: assign each of the following binders its reported percent inhibition at 1.22 nM ADC, NCIH661 cells.
Biological target: T1, human CDH6 on cells (human, UniProt P55285 54-790)
T1 sequence: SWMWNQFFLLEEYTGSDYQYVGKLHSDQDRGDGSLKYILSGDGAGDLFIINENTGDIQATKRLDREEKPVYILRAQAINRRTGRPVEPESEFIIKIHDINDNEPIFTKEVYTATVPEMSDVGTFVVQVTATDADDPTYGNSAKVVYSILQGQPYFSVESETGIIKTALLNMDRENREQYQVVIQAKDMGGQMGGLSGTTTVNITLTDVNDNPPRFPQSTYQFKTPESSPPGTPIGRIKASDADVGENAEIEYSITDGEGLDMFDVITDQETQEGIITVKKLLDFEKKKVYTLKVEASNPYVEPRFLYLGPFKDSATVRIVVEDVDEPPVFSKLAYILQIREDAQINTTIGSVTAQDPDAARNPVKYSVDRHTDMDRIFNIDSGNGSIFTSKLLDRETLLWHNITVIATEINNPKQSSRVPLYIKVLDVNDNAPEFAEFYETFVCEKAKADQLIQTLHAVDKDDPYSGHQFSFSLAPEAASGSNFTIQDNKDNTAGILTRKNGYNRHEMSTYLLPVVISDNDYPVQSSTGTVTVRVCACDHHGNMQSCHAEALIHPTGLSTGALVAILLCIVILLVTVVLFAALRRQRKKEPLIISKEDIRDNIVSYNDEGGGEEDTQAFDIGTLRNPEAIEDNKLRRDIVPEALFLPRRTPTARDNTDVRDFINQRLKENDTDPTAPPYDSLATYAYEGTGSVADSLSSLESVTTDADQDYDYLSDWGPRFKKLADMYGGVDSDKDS
Assay: cell-based or functional assay
Answers are plain numbers, in %.

Known percent inhibition at 1.22 nM ADC, NCIH661 cells results, listed for orientation:
Recorded percent inhibition at 1.22 nM ADC, NCIH661 cells (binder NOV0693-SMCC-DM1 (antibody, human IgG1, kappa, V domains shown, SMCC-DM1 on primary amines, sites not stated) VH: QVQLLESGGGLVQPGGSLRLSCAASGFTFSSYALHWVRQAPGKGLEWVSYIFYDSSSTYYADSVKGRFTISRDNSKNTLYLQMNSLRAEDTAVYYCARFLYSAYGVANWGQGTLVTVSS VL: DIQMTQSPSSLSASVGDRVTITCRASQSISFYLAWYQQKPGKAPKLLIYGASTLQSGVPSRFSGSGSGTDFTLTISSLQPEDFATYYCHQYSYWLRTFGQGTKVEIKR ): 25.9

Recorded percent inhibition at 1.22 nM ADC, NCIH661 cells (binder NOV0690-SMCC-DM1 (antibody, human IgG1, lambda, V domains shown, SMCC-DM1 on primary amines, sites not stated) VH: QVQLLESGGGLVQPGGSLRLSCAASGFTFSDHAIDWVRQAPGKGLEWVSVIAGDGSITYYADSVKGRFTISRDNSKNTLYLQMNSLRAEDTAVYYCARDTGVYREYMDVWGQGTLVTVSS VL: DIELTQPPSVSVSPGQTASITCSGDAIGTKFAHWYQQKPGQAPVLVIYYDHERPSGIPERFSGSNSGNTATLTISGTQAEDEADYYCYSRASSNLVFGGGTKLTVLG ): 14.6

New cases:
Recorded percent inhibition at 1.22 nM ADC, NCIH661 cells (binder NOV0691-SMCC-DM1 (antibody, human IgG1, lambda, V domains shown, SMCC-DM1 on primary amines, sites not stated) VH: QVQLVESGGGLVKPGGSLRLSCAASGFTFSSYALNWVRQAPGKGLEWVGRIKSKTYGGSTDYAAPVKGRFTISRDDSKNTLYLQMNSLKTEDTAVYYCARDRGGYVGFDSWGQGTLVTVSS VL: DIALTQPASVSGSPGQSITISCTGTSSDVGRYNFVSWYQQHPGKAPKLMIYRVSNRPSGVSNRFSGSKSGNTASLTISGLQAEDEADYYCQSWTTYSNVVFGGGTKLTVLG ): -10.5
